B1: CRYL1 (parent)
chain: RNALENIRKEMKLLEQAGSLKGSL

- Variants of: B1
- Method summary: protein stability index of a GFP-peptide fusion (GPS, HEK-293T) (PSI 1-6); higher = more stable;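 note: lentivirally expressed fusions sorted by FACS into six bins by GFP to DsRed ratio, PSI derived from sequencing read proportions per bin multiplied by bin number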
- Assay conditions: c terminus: a fixed tail appended
Property: protein stability index

Illustrative cases are given below, each with its answer.
1. RNALENIRKEMKLLEQAGSLKDSL [G22D]    4.1
2. RNALENIRKEMKLLEQAGPLKGSL [S19P]    3.54
3. RNALENIRKEMKLLDQAGSLKGSL [E15D]    3.63

Q: I am curious: what protein stability index value has been reported for RKALENIRKEMKLLEQAGSLKGSL [N2K] ?
Ans: 2.83

Q: What value of protein stability index has been recorded for this entry: RNALENIRKEMKLFEQAGSLKGSL [L14F]
Ans: 3.19

Q: Fill in: protein stability index of RNALENIRKEMKLLEQVGSLKGSL [A17V] is ___
Ans: 3.58

Q: // returns reported protein stability index for input RNALENIRKEMKLLEQAGSLKGPL [S23P]
Ans: 3.56

Q: Please report the recorded protein stability index for RNALENIKKEMKLLEQAGSLKGSL [R8K] .
Ans: 3.04
